The reported numbers originate from paper PMC8443706.

molecular target: T1, IIB-Fc:IIB-Fc homodimer (human ActRIIB ECD fused to human IgG1 Fc) (human, UniProt Q13705-1 19-134); assay: SPR; Biacore 8K, 37 °C; Fc-fusion receptor dimers captured by anti-human Fc antibody on a CM5 chip (100-150 RU); ligands injected in two-fold dilution series (300 s association, 600 s dissociation); HBS-EP+ supplemented with 350 mM NaCl and 0.5 mg/mL BSA; 1:1 Langmuir model with a term for mass transport; settings: both partners purified
T1 construct: activin receptor type IIB (ActRIIB) extracellular domain, human, aa 19-134 of NP_001097.2; Chains linked by disulfide bonds between the Fc domains; a form with murine IgG2a Fc was used only in mice; also called ActRIIB-Fc homodimer; ActRIIB-Fc; not shown: Fc (human IgG1), C-terminal, kept
T1 sequence (Q13705 19-134): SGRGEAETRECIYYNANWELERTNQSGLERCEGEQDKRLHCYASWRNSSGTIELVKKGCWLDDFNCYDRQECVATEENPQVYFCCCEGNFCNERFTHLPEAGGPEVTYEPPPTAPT
pKd: −log10 of the molar value.
Each item that follows carries a reported pKd.

binder: GDF3 (ligand, human, UniProt Q9NR23 251-364, looked up, source: bought: R&D Systems) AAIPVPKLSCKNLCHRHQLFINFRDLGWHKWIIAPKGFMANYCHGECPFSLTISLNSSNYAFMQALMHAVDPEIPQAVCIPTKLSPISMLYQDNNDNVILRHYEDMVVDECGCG
pKd: 9.19

binder: activin B (ligand, human, UniProt P09529 293-407, looked up, source: generated in house) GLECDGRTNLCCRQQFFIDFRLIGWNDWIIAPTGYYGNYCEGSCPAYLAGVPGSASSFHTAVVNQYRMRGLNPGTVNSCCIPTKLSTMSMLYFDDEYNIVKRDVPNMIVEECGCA
pKd: 11.42

binder: activin A (ligand, human, UniProt P08476 311-426, looked up, source: generated in house) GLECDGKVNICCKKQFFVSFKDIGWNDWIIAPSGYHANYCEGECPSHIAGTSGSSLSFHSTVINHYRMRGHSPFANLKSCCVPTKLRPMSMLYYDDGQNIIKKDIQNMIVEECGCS
pKd: 10.96
